# Tested on: Venus-PKD1
# MEASUREMENT_DESCRIPTION: Venus-PKD1 translocation to dendritic puncta (puncta index) in transfected neurons
# Type: cell-based, mouse
# CONDITION_DETAILS: drug applied with glutamate
ASSAY_READOUT: effect on glutamate-induced Venus-PKD1 puncta formation

COMPOUND: Cn1c2ccccc2c2c3c(c4c5ccccc5n(CCC#N)c4c21)CNC3=O [Gö6976]
ENDPOINT_RESULT: had no effect

COMPOUND: CN(C)CCCn1cc(C2=C(c3c[nH]c4ccccc34)C(=O)NC2=O)c2ccccc21 [GF109203X]
ENDPOINT_RESULT: had no effect
